Overview of reported kinase still bound, per cent of control across a group of compounds:
- measured.on: ROCK2 (human) (UniProt O75116)
- Sequence (O75116 whole entry, looked up): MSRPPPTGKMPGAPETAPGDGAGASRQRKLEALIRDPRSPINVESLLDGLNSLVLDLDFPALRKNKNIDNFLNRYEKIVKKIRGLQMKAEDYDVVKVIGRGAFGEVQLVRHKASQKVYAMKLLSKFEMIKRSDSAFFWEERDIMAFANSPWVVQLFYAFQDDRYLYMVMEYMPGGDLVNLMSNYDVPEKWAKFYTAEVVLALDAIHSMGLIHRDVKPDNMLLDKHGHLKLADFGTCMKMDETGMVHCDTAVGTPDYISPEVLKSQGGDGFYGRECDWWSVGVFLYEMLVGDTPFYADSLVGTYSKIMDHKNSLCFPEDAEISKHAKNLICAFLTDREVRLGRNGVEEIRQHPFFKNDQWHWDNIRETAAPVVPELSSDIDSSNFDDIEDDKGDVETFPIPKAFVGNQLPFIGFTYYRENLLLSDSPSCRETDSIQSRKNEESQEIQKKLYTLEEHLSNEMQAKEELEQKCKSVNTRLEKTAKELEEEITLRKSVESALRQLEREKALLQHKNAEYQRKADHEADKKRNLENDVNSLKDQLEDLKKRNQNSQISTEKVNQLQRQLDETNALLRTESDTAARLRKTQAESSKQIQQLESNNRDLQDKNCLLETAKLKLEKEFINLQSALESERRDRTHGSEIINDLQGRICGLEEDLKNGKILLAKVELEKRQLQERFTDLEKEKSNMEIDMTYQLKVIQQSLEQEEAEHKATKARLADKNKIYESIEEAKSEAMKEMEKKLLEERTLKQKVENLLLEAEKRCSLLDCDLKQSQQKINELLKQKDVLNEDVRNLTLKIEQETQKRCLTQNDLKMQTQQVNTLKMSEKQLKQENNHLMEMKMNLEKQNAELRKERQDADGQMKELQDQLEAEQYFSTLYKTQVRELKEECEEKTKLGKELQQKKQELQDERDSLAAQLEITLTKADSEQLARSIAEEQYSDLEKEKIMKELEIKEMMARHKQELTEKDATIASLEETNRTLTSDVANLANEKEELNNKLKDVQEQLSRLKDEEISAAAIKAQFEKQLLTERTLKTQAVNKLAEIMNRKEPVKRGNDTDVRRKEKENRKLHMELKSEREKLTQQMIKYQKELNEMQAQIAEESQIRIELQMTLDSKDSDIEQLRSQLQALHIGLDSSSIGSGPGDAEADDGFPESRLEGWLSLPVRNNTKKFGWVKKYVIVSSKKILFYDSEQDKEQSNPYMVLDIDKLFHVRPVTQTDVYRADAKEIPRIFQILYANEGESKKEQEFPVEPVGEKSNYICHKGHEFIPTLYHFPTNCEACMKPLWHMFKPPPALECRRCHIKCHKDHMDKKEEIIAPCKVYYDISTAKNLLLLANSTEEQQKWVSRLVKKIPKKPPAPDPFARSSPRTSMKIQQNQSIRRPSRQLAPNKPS
- test.name: KINOMEscan competition binding
- assay.setup: compound 10.0 µM

{"structure.smiles.string": "COc1cc(N2CCN(C)CC2)ccc1Nc1ncc2c(n1)Nc1ccccc1NC2=O", "kinase still bound, per cent of control, %": 48}
{"structure.smiles.string": "COc1cc(N2CCC(O)CC2)ccc1Nc1ncc2c(n1)N1CCc3cccc(c31)C(=O)N2C", "kinase still bound, per cent of control, %": 86}
{"structure.smiles.string": "N=C1NC(=O)/C(=C/c2ccc(-c3ccc(C(=O)Nc4ccc(N5CCNCC5)cc4)cc3O)o2)S1", "kinase still bound, per cent of control, %": 21}
{"structure.smiles.string": "CN1C(=O)c2ccccc2N(C)c2nc(NS(=O)(=O)c3ccc(N)cc3)ncc21", "kinase still bound, per cent of control, %": 100}
{"structure.smiles.string": "COc1cc(N2CCN(C)CC2)ccc1Nc1ncc2c(n1)N(C)c1sccc1C(=O)N2C", "kinase still bound, per cent of control, %": 57}
{"structure.smiles.string": "CN1CCN(c2ccc(C(=O)Nc3ncc4c(n3)N(C)c3ccccc3C(=O)N4C)cc2)CC1", "kinase still bound, per cent of control, %": 100}
{"structure.smiles.string": "CN1C(=O)c2ccccc2N(C)c2nc(Nc3ccc(N4CCC(O)CC4)cc3)ncc21", "kinase still bound, per cent of control, %": 86}
{"structure.smiles.string": "O=C1NC(=O)/C(=C/c2c[nH]c(=O)c(-c3ccc(N4CCNCC4)nc3)c2)S1", "kinase still bound, per cent of control, %": 56}
{"structure.smiles.string": "COc1cc(N2CCN(C)CC2)ccc1Nc1ncc2c(n1)N(C)c1ccccc1N(C)C2=O", "kinase still bound, per cent of control, %": 50}

Where do these numbers come from? They come from the kinase profiling compilation of Christmann-Franck et al. (2016).
